# assayed.system: Biotin-labeled RNA (target RNA)
# test.summary: BLI affinity measurement (ForteBio Octet RED384)
# conditions.used: Table G
measured.endpoint: Kd (nM)

[[record]]
molecule = "Cc1c2ccncc2cc2c3cc(C(=O)N[C@H](C)CO)ccc3n(C)c12"
assayed_system = "Biotin-labeled RNA (target RNA)"
assay_result = 5000

[[record]]
molecule = "Cc1c2ccnc(C(=O)NCCN(C)C)c2cc2c3cc(F)ccc3n(C)c12"
assayed_system = "Biotin-labeled RNA (target RNA)"
assay_result = 11000

[[record]]
molecule = "Cc1c2ccncc2cc2c3cc(OC[C@H]4CCCN4)cc(F)c3n(C)c12"
assayed_system = "Biotin-labeled RNA (target RNA)"
assay_result = 720

[[record]]
molecule = "Cc1c2ccncc2cc2c3cc(C(=O)NC[C@H](C)O)ccc3n(C)c12"
assayed_system = "Biotin-labeled RNA (target RNA)"
assay_result = 1500

[[record]]
molecule = "Cc1c2ccncc2cc2c3cc(OCC[C@@H](C)N)ccc3n(C)c12"
assayed_system = "Biotin-labeled RNA (target RNA)"
assay_result = 8000

[[record]]
molecule = "Cc1c2ccncc2cc2c3cc(OC[C@H](C)NC(C)C)ccc3n(C)c12"
assayed_system = "Biotin-labeled RNA (target RNA)"
assay_result = 90

[[record]]
molecule = "CNCCOc1ccc2c(c1)c1cc3cnccc3c(C)c1n2C"
assayed_system = "Biotin-labeled RNA (target RNA)"
assay_result = 710

[[record]]
molecule = "Cc1c2ccncc2cc2c3cc(OC[C@H](C)Nc4ccccn4)ccc3n(C)c12"
assayed_system = "Biotin-labeled RNA (target RNA)"
assay_result = 1400

[[record]]
molecule = "Cc1c2ccncc2cc2c3cc(C(=O)NC[C@@H](C)N)ccc3n(C)c12"
assayed_system = "Biotin-labeled RNA (target RNA)"
assay_result = 350


----------
# assayed.system: biotinylated r(G4C2)8 RNA and hnRNP H1-His6
# test.summary: TR-FRET hnRNP H binding assay
# conditions.used: Table D
# note: exactly 6 µM is not below, so it is false; use true for Ki strictly under it

[[record]]
compound = "Cc1c2ccncc2cc2c3cc(OCC4=NCCN4)ccc3n(C(C)C)c12 [Example 84]"
label = "false"

[[record]]
compound = "Cc1c2cnccc2cc2c3cc(OCC4=NCCN4)ccc3n(C)c12 [Example 83]"
label = "true"

[[record]]
compound = "Cc1c2ccncc2cc2c3c(OCCN(C)C)cccc3n(C)c12 [Example 55]"
label = "true"

[[record]]
compound = "Cc1c2ccncc2cc2c3cc(OCC(=O)N4CCN(C)CC4)ccc3n(C)c12 [Example 60]"
label = "true"

[[record]]
compound = "COc1ccc2c(c1)c1cc3cnccc3c(C)c1n2C [Compound 1]"
label = "false"

[[record]]
compound = "Cc1c2ccncc2cc2c3cc(OCC(=O)NCCCN(C)C)ccc3n(C)c12 [Example 58]"
label = "true"

[[record]]
compound = "Cc1c2ccncc2cc2c3cc(C(=O)NCCO)ccc3n(C)c12 [Example 78]"
label = "true"

[[record]]
compound = "Cc1c2ccncc2cc2c3cc(OCC(=O)NCCN)ccc3n(C)c12 [Compound 4a]"
label = "true"

[[record]]
compound = "COc1ccc2c(c1)c1cc3c(C(=O)N[C@H](C)CN(C)C)nccc3c(C)c1n2C [Example 25]"
label = "false"

[[record]]
compound = "Cc1c2ccncc2cc2c3cc(OCC4=NCCN4)ccc3n(CCCN3CCN(C)CC3)c12 [Example 43]"
label = "false"

[[record]]
compound = "CCn1c2ccc(OCC3=NCCN3)cc2c2cc3cnccc3c(C)c21 [Example 63]"
label = "true"

[[record]]
compound = "COC(=O)CCCOc1ccc2c(c1)c1cc3cnccc3c(C)c1n2C [Example 44b]"
label = "false"

[[record]]
compound = "Cc1c2ccncc2cc2c1sc1ccc(OCCN3CCOCC3)cc12 [Example 81]"
label = "false"

[[record]]
compound = "Cc1c2ccncc2cc2c3cc(C(=O)NCCC4CCN(C)CC4)ccc3n(C)c12 [Example 75]"
label = "false"

[[record]]
compound = "COc1ccc2c(c1)c1cc3c(C(=O)NCCCN(C)C)nccc3c(C)c1n2C [Example 29]"
label = "false"

[[record]]
compound = "CNCCNC(=O)c1ccc2c(c1)c1cc3cnccc3c(C)c1n2C [Example 73]"
label = "false"

[[record]]
compound = "Cc1c2ccncc2cc2c3ccc(OCCN4CCOCC4)cc3n(C)c12 [Example 53]"
label = "false"

[[record]]
compound = "Cc1c2ccncc2cc2c3cc(OCC(=O)NCCN4CCOCC4)ccc3n(C)c12 [Example 42]"
label = "false"


----------
# IC25 listing for each entry below
# Test system: RAN translation of (G4C2)66-No ATG-GFP in HEK293T cells
# test.summary: Cell-based assay of RAN translation inhibition (GFP/mCherry reporter)
# conditions.used: Homo sapiens, HEK-293T, 24 h, Table F; HEK293T, 24 h treatment; read-out: RANT IC25
measured.endpoint: IC25

[[record]]
molecule = "Cc1c2ccncc2cc2c3cc(C(=O)NCCN4CCCCC4)ccc3n(C)c12 [Compound 213]"
measured_endpoint = "IC25"
assay_result = "1.7 µM"

[[record]]
molecule = "Cc1c2ccncc2cc2c3cc(OC[C@H](C)N(C)C)ccc3n(C)c12 [Compound 230]"
measured_endpoint = "IC25"
assay_result = "4.3 µM"

[[record]]
molecule = "Cc1c2ccncc2cc2c3cc(OCC4=NCCN4)cc(F)c3n(C)c12 [Compound 254]"
measured_endpoint = "IC25"
assay_result = "> 5 µM"

[[record]]
molecule = "Cc1c2ccncc2cc2c3cc(N4CCNC5(CC5)C4)ccc3n(C)c12 [Compound 246]"
measured_endpoint = "IC25"
assay_result = "> 5 µM"

[[record]]
molecule = "Cc1c2ccncc2cc2c3cc(C(=O)NCCO)ccc3n(C)c12 [Compound 214]"
measured_endpoint = "IC25"
assay_result = "1 µM"

[[record]]
molecule = "Cc1c2ccncc2cc2c3cc(OCCN4CCOCC4)ccc3n(CC(C)(C)C)c12 [Compound 247]"
measured_endpoint = "IC25"
assay_result = "> 5 µM"

[[record]]
molecule = "Cc1c2ccncc2cc2c3cc(OCCN4CCS(=O)(=O)CC4)ccc3n(C)c12 [Compound 217]"
measured_endpoint = "IC25"
assay_result = "> 5 µM"

[[record]]
molecule = "COCCNC(=O)c1ccc2c(c1)c1cc3cnccc3c(C)c1n2C [Compound 215]"
measured_endpoint = "IC25"
assay_result = "> 5 µM"

[[record]]
molecule = "Cc1c2ccncc2cc2c3cc(OC[C@@H](C)N(C)C)ccc3n(C)c12 [Compound 242]"
measured_endpoint = "IC25"
assay_result = "1.5 µM"

[[record]]
molecule = "Cc1c2ccnc(C(=O)N[C@H](C)CN(C)C)c2cc2c3cccc(OCCCN4CCN(C)CC4)c3n(C)c12 [Compound 253]"
measured_endpoint = "IC25"
assay_result = "> 5 µM"

[[record]]
molecule = "Cc1c2ccncc2cc2c3cc(OCC4=NCCN4)ccc3n(CC(C)(C)C)c12 [Compound 252]"
measured_endpoint = "IC25"
assay_result = "> 5 µM"

[[record]]
molecule = "Cc1c2ccncc2cc2c3cccc(OCC4=NCCN4)c3n(C)c12 [Compound 232]"
measured_endpoint = "IC25"
assay_result = "> 5 µM"

[[record]]
molecule = "Cc1c2ccnc(C3CCCO3)c2cc2c3cc(C(=O)NCCN(C)C)ccc3n(C)c12 (stereo not drawn) [Compound 216]"
measured_endpoint = "IC25"
assay_result = "1.7 µM"

[[record]]
molecule = "Cc1c2ccncc2cc2c1[nH]c1ccc(OCC3=NCCN3)cc12 [Compound 257]"
measured_endpoint = "IC25"
assay_result = "2.7 µM"

[[record]]
molecule = "Cc1c2ccncc2cc2c1[nH]c1ccc(OCCN3CCOCC3)cc12 [Compound 250]"
measured_endpoint = "IC25"
assay_result = "> 5 µM"

[[record]]
molecule = "CC(C)n1c2ccc(OCC3=NCCN3)cc2c2cc3cnccc3cc21 [Compound 256]"
measured_endpoint = "IC25"
assay_result = "> 5 µM"

[[record]]
molecule = "Cc1c2ccnc(C(=O)N[C@H](C)CN(C)C)c2cc2c3ccc(OCCCN4CCN(C)CC4)cc3n(C)c12 [Compound 222]"
measured_endpoint = "IC25"
assay_result = "> 5 µM"

[[record]]
molecule = "Cn1c2ccc(OCC(=N)N)cc2c2cc3cnccc3cc21 [Compound 245]"
measured_endpoint = "IC25"
assay_result = "1.7 µM"


----------
# Kd listing for each entry below
# assayed.system: Biotin-labeled RNA (target RNA)
# test.summary: BLI affinity measurement (ForteBio Octet RED384)
# conditions.used: Table G
measured.endpoint: Kd (µM)

[[record]]
molecule = "Cc1c2ccncc2cc2c3cc(C(=O)N[C@@H](C)CN)ccc3n(C)c12"
assayed_system = "Biotin-labeled RNA (target RNA)"
assay_result = 0.46

[[record]]
molecule = "COCCN[C@@H](C)COc1ccc2c(c1)c1cc3cnccc3c(C)c1n2C"
assayed_system = "Biotin-labeled RNA (target RNA)"
assay_result = 0.083

[[record]]
molecule = "Cc1c2ccncc2cc2c3cc(OC[C@H](C)NC(N)=O)ccc3n(C)c12"
assayed_system = "Biotin-labeled RNA (target RNA)"
assay_result = 0.14

[[record]]
molecule = "Cc1c2ccnc(C(=O)NCCN)c2cc2c3cc(F)c(F)cc3n(C)c12"
assayed_system = "Biotin-labeled RNA (target RNA)"
assay_result = 1.4

[[record]]
molecule = "Cc1c2ccncc2cc2c3cc(C(=O)NC[C@@H](C)N(C)C)ccc3n(C)c12"
assayed_system = "Biotin-labeled RNA (target RNA)"
assay_result = 0.3

[[record]]
molecule = "COCC(C)(C)NC(=O)c1ccc2c(c1)c1cc3cnccc3c(C)c1n2C"
assayed_system = "Biotin-labeled RNA (target RNA)"
assay_result = 8.2

[[record]]
molecule = "Cc1c2ccncc2cc2c3ccccc3n(CCN(C)C)c12"
assayed_system = "Biotin-labeled RNA (target RNA)"
assay_result = 1.3

[[record]]
molecule = "COc1ccc2c(c1)c1cc3cnccc3c(C)c1n2CCN1CCCCC1"
assayed_system = "Biotin-labeled RNA (target RNA)"
assay_result = 3.4

[[record]]
molecule = "Cc1c2ccncc2cc2c3cc(Oc4cccc(N)n4)ccc3n(C)c12"
assayed_system = "Biotin-labeled RNA (target RNA)"
assay_result = 1.4

